# ASSAY: Cynomolgus monkey tolerability, body and organ weight measurements (Example 34)
# Format: in vivo
# SETTINGS: cynomolgus monkeys, 35 mg/kg subcutaneously, necropsy
# Experimental: Cynomolgus monkeys were treated with Ionis modified oligonucleotides selected from studies described in the Examples above. Modified oligonucleotide tolerability was evaluated. During the study period, the monkeys were observed twice daily for signs of illness or distress. […] To evaluate the effect of Ionis oligonucleotides on the overall health of the animals, body and organ weights were measured. Terminal body weight was measured prior to necropsy.
ENDPOINT NAME: Heart weight (g)
Answers are plain numbers, in g.

Answered cases to consult:
SUBSTANCE: 1198440 (AAGTGTATGTCAGAAG; cEt, 2'-MOE, 5-methylcytosine, phosphorothioate modifications, further chemistry not given here) [compound 1198440]
ENDPOINT NAME: Heart weight
MEASUREMENT: 11
--
SUBSTANCE: 1197270 (TTAAAGTGTATGTCAG; cEt gapmer with 2'-OMe nucleoside, phosphorothioate, further chemistry not given here) [compound 1197270]
ENDPOINT NAME: Heart weight
MEASUREMENT: 10
--
SUBSTANCE: 1076453 (GTAATATTGCAATCTG; 3-10-3 cEt gapmer, further chemistry not given here) [compound 1076453]
ENDPOINT NAME: Heart weight
MEASUREMENT: 11

For this substance ( 1198872 (TGTATGTCAGAAGAGT; chemically modified gapmer, further chemistry not given here) [compound 1198872] ), measured Heart weight is 12
